Values from patent US20050009894A1

Molecular target: human KDR enzyme (Homo sapiens, UniProt P35968)
Construct: The cytoplasmic domain of human KDR enzyme is cloned in the form of a GST fusion; GST; made in house; host or cells: SF21 insect cells (baculovirus, pFastBac)
Sequence (P35968 786-1356 limits assumed): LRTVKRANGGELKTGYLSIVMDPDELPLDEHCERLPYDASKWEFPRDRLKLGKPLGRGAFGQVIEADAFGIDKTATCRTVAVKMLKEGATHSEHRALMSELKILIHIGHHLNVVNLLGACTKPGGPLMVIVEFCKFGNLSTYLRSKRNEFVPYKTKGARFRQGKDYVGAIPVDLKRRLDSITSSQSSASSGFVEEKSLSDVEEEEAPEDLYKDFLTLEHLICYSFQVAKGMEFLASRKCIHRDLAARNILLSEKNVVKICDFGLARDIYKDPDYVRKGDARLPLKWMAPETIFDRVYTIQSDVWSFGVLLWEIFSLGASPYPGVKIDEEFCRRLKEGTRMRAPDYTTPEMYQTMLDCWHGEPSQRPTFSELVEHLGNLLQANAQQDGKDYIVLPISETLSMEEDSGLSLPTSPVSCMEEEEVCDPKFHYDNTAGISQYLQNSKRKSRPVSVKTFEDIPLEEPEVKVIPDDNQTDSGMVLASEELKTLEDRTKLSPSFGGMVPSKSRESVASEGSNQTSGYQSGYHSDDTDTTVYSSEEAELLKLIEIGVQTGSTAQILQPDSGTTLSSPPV
Assay: Phosphorylation of the substrate PLCγ by the enzyme KDR in vitro (flashplate technique)
Type: biochemical
Conditions: read-out: IC50 (μM) on inhibition of the phosphory-lation of PLCγ by KDR
Consider the cut-off 0.6 µM. If the recorded IC50 is strictly smaller, the label is fulfilled; if not, the label is not fulfilled.

Please review the entries below; each comes with its answer.
compound | classification
CN1CCN(C(=O)c2ccc3[nH]c(-c4n[nH]c5ccccc45)nc3c2)CC1 [Example 8] | not fulfilled
COC(=O)c1ccc2nc(-c3n[nH]c4ccccc34)[nH]c2c1 [Example 14] | not fulfilled

query: Lab note: IC50 threshold 0.6 µM. Does this compound come in strictly under it? CNC(=O)c1ccc2[nH]c(-c3n[nH]c4ccccc34)nc2c1 [Example 2]
result: fulfilled

query: Problem: For the compound Cc1cc(-c2nc3cc(C)c(C)cc3[nH]2)[nH]n1 [Example 20] , is IC50 under 0.6 µM?
result: not fulfilled

query: Dear colleague, could you confirm whether IC50 of O=C(NCc1ccco1)c1ccc2[nH]c(-c3n[nH]c4ccccc34)nc2c1 [Example 12] falls below 0.6 µM? Thanks.
result: fulfilled

query: I wonder whether O=C(NCc1ccccc1)c1ccc2nc(-c3n[nH]c4ccccc34)[nH]c2c1 [Example 1] has IC50 below 0.6 µM. Can you tell?
result: fulfilled

query: Here's an entry: CC(C)CNC(=O)c1ccc2[nH]c(-c3n[nH]c4ccccc34)nc2c1 [Example 10] . Is its IC50 below 0.6 µM?
result: fulfilled

query: Does COc1ccc2nc(-c3n[nH]c4ccccc34)[nH]c2c1 [Example 16] have IC50 strictly under 0.6 µM?
result: not fulfilled

query: Is the reported IC50 for Cc1cc2nc(-c3n[nH]c4ccccc34)[nH]c2cc1C [Example 15] strictly below 0.6 µM?
result: not fulfilled

* * *

Target: human KDR enzyme (Homo sapiens, UniProt P35968)
Construct: The cytoplasmic domain of human KDR enzyme is cloned in the form of a GST fusion; GST; made in house; host or cells: SF21 insect cells (baculovirus, pFastBac)
Experiment: Phosphorylation of the substrate PLCγ by the enzyme KDR in vitro (flashplate technique)
Type: biochemical
Settings: Table VII, degrees of activity by IC50 range; read-out: Activity
pIC50: −log10 of the molar value.
A collection of molecules and their measured pIC50

Measured pIC50, O=C(NCc1ccc2c(c1)CCO2)c1cccc2nc(-c3n[nH]c4ccccc34)[nH]c12 : < 5.52

For this molecule ( O=C(NCc1csc2ccc(Cl)cc12)c1ccc2[nH]c(-c3n[nH]c4ccccc34)nc2c1 ), measured pIC50 is < 5.52

So, CC(=O)Nc1cccc(OCCCNC(=O)c2ccc3[nH]c(-c4n[nH]c5ccccc45)nc3c2)c1 ? Its pIC50 was 5.52 to 6.52

Sure, the documented pIC50 for Clc1ccc(/C=C/c2ccc3nc(-c4[nH]nc5ccccc45)[nH]c3c2)cc1 is < 5.52

Lab note: Clc1ccc(COc2cc(-c3nc4ccccc4[nH]3)[nH]n2)cc1Cl gave pIC50 of 5.52 to 6.52

# pIC50 of COc1ccc(C(=O)COc2cc(-c3nc4ccccc4[nH]3)[nH]n2)cc1 = < 5.52

Notebook: O=C(NCc1cccnc1)c1ccc2[nH]c(-c3n[nH]c4ccccc34)nc2c1 , pIC50 read as 5.52 to 6.52

Lab book: pIC50 of Clc1cc(Cl)cc(-c2ccc3nc(-c4[nH]nc5ccccc45)[nH]c3c2)c1 noted as < 5.52

* * *

Target: human KDR enzyme (Homo sapiens)
Construct: The cytoplasmic domain of human KDR enzyme is cloned in the form of a GST fusion; GST; made in house; host or cells: SF21 insect cells (baculovirus, pFastBac)
Experiment: Phosphorylation of the substrate PLCγ by the enzyme KDR in vitro (flashplate technique)
Type: biochemical
Conditions: Table VII, degrees of activity by IC50 range; read-out: Activity
pIC50: −log10 of the molar value.
measuredProperty: pIC50

Previously resolved entries follow.
molecule | pIC50
CC(C)(C)C(=O)COc1cc(-c2nc3ccccc3[nH]2)[nH]n1 [Example 205] | < 5.52
FC(F)(F)c1ccc(COc2cc(-c3nc4ccccc4[nH]3)[nH]n2)cc1 [Example 187] | < 5.52
O=C(NCc1ccccc1[N+](=O)[O-])c1ccc2[nH]c(-c3n[nH]c4ccccc34)nc2c1 [Example 67] | 5.52 to 6.52

With those in mind, consider the next molecule.
pIC50 on human KDR enzyme (Homo sapiens) for CC(C)(C)c1ccc(COc2cc(-c3nc4ccccc4[nH]3)[nH]n2)cc1 [Example 190] is < 5.52

* * *

Biological target: human KDR enzyme (Homo sapiens)
Construct: The cytoplasmic domain of human KDR enzyme is cloned in the form of a GST fusion; GST; made in house; host or cells: SF21 insect cells (baculovirus, pFastBac)
Test: Phosphorylation of the substrate PLCγ by the enzyme KDR in vitro (flashplate technique)
Assay type: biochemical
Conditions: Table VII, degrees of activity by IC50 range; read-out: Activity
Reported IC50 values are given for each entry in this list.

Look over these answered cases.
compound | IC50
O=C(NCc1ccc(F)cc1F)c1ccc2[nH]c(-c3n[nH]c4ccccc34)nc2c1 [Example 155] | 300 to 3000 nM
CSc1ccccc1CNC(=O)c1ccc2[nH]c(-c3n[nH]c4ccccc34)nc2c1 [Example 62] | < 300 nM
Cc1ccsc1CNC(=O)c1ccc2[nH]c(-c3n[nH]c4ccccc34)nc2c1 [Example 46] | 300 to 3000 nM
Cc1ccc(F)c(CNC(=O)c2ccc3[nH]c(-c4n[nH]c5ccccc45)nc3c2)c1F [Example 166] | 300 to 3000 nM
COc1cccc(COc2cc(-c3nc4ccccc4[nH]3)[nH]n2)c1 [Example 197] | 300 to 3000 nM

Field IC50 (entry Cc1nn(C)cc1CNC(=O)c1ccc2[nH]c(-c3n[nH]c4ccccc34)nc2c1 [Example 43] ) reads 300 to 3000 nM

Summary for this compound, O=C(NCc1cccc(Cl)c1)c1ccc2[nH]c(-c3n[nH]c4ccccc34)nc2c1 [Example 72] : IC50 is < 300 nM

response.value for c1ccc2c(-c3nc4ccc(-c5ccc6c(c5)OCO6)cc4[nH]3)[nH]nc2c1 [Example 117] (field: IC50) = 300 to 3000 nM

* * *

// reported pIC50 per item
Target: human KDR enzyme (Homo sapiens, UniProt P35968)
Construct: The cytoplasmic domain of human KDR enzyme is cloned in the form of a GST fusion; GST; made in house; host or cells: SF21 insect cells (baculovirus, pFastBac)
Experiment: Phosphorylation of the substrate PLCγ by the enzyme KDR in vitro (flashplate technique)
Format: biochemical
Conditions: Table VII, degrees of activity by IC50 range; read-out: Activity
pIC50: −log10 of the molar value.

// worked examples, pIC50 included
compound | pIC50
O=C(NCc1cccc([N+](=O)[O-])c1)c1ccc2[nH]c(-c3n[nH]c4ccccc34)nc2c1 [Example 153] | 5.52 to 6.52
O=C(NCc1ccccc1F)c1ccc2[nH]c(-c3n[nH]c4ccccc34)nc2c1 [Example 154] | 5.52 to 6.52
Cc1cc(C)cc(-c2ccc3nc(-c4[nH]nc5ccccc45)[nH]c3c2)c1 [Example 115] | 5.52 to 6.52
O=C(NCc1ccc(Cl)cc1Cl)c1ccc2[nH]c(-c3n[nH]c4ccccc34)nc2c1 [Example 167] | > 6.52

Reported pIC50 of FC(F)(F)c1ccc(-c2ccc3nc(-c4[nH]nc5ccccc45)[nH]c3c2)cc1 [Example 112] : < 5.52

According to the records, this compound O=C(NCc1ccc(-c2cccs2)s1)c1ccc2[nH]c(-c3n[nH]c4ccccc34)nc2c1 [Example 57] displays pIC50 of 5.52 to 6.52

Looking up O=C(NCc1ccc(Cl)nc1)c1cccc2nc(-c3n[nH]c4ccccc34)[nH]c12 [Example 86] , I found its pIC50 recorded as < 5.52

Lookup result for COc1cccc(CNC(=O)c2cccc3nc(-c4n[nH]c5ccccc45)[nH]c23)c1 [Example 82] ; measured pIC50: 5.52 to 6.52

Summary for this compound, N#Cc1ccc(C(=O)COc2cc(-c3nc4ccccc4[nH]3)[nH]n2)cc1 [Example 208] : pIC50 is < 5.52

Item: O=C(NCc1ccc2c(c1)CCO2)c1ccc2[nH]c(-c3n[nH]c4ccccc34)nc2c1 [Example 58] | pIC50: > 6.52

The recorded pIC50 for CNC(=O)c1ccc2[nH]c(-c3n[nH]c4ccccc34)nc2c1 [Example 148] is 5.52 to 6.52

Looking up O=C(NCc1ccc(Cl)c(F)c1)c1ccc2[nH]c(-c3n[nH]c4ccccc34)nc2c1 [Example 178] , I found its pIC50 recorded as > 6.52

Noted for OCc1cccc(-c2ccc3nc(-c4[nH]nc5ccccc45)[nH]c3c2)c1 [Example 133] : its pIC50 reads 5.52 to 6.52

Reported pIC50 of CC(C)c1ccc(CNC(=O)c2ccc3[nH]c(-c4n[nH]c5ccccc45)nc3c2)cc1 [Example 52] : 5.52 to 6.52

get_value(item= CCC(=O)COc1cc(-c2nc3ccccc3[nH]2)[nH]n1 [Example 201] , readout=pIC50) returns < 5.52

Measured pIC50, O=C(NCc1ccc(-c2ccc(F)cc2)cc1)c1ccc2[nH]c(-c3n[nH]c4ccccc34)nc2c1 [Example 164] : < 5.52

# compound O=C(NCc1cccc(OC(F)(F)F)c1)c1cccc2nc(-c3n[nH]c4ccccc34)[nH]c12 [Example 85] ; its pIC50 = < 5.52

Documented pIC50 of Oc1cccc(-c2ccc3nc(-c4[nH]nc5ccccc45)[nH]c3c2)c1 [Example 121] : 5.52 to 6.52

The compound listed as NS(=O)(=O)c1ccc(CNC(=O)c2ccc3[nH]c(-c4n[nH]c5ccccc45)nc3c2)cc1 [Example 28] shows pIC50 equal to > 6.52

The value of pIC50 measured for the compound O=C(NCc1cc2ccccc2s1)c1ccc2[nH]c(-c3n[nH]c4ccccc34)nc2c1 [Example 54] turned out to be 5.52 to 6.52

pIC50 reported for this compound Fc1ccc(/C=C/c2ccc3nc(-c4[nH]nc5ccccc45)[nH]c3c2)cc1 [Example 138] : < 5.52

response.value for O=C(NCc1cc(F)c(F)c(F)c1)c1ccc2[nH]c(-c3n[nH]c4ccccc34)nc2c1 [Example 161] (field: pIC50) = 5.52 to 6.52

The recorded pIC50 for CCOCCCNC(=O)c1cccc2nc(-c3n[nH]c4ccccc34)[nH]c12 [Example 74] is < 5.52

pIC50 reported for this compound CC(C)(C)OC(=O)N1CCN(C(=O)c2ccc3[nH]c(-c4n[nH]c5ccccc45)nc3c2)CC1 [Example 175] : 5.52 to 6.52

Per the records, this compound ( O=C(NCc1cccc(C(F)(F)F)c1)c1cccc2nc(-c3n[nH]c4ccccc34)[nH]c12 [Example 88] ) has pIC50 equal to < 5.52
